Provide the reported inhibition at 5 µM of each item.
experimental system: SARS-CoV-2 3CLpro (Severe acute respiratory syndrome coronavirus 2, UniProt P0DTD1)
test: biochemical
Assay type: biochemical
run parameters: 4 h, read-out: mean
Counter-ions that a name gives are not always drawn.
Enter your answer as a number in %; do not include the unit.

Quick one: inhibition at 5 µM of CC1(C)CCC2=C(O1)c1ccccc1C(=O)C2=O ?
0.557

Moving on to the next compound: CS(=O)(=O)Nc1ccc([N+](=O)[O-])cc1Oc1ccccc1 [Nimesulide]
4.59

Moving on to the next compound: O=c1c(-c2ccc(O)cc2)coc2cc(O)ccc12
3.16

Moving on to the next compound: Cc1ccc(Cl)c(Nc2ccccc2C(=O)O)c1Cl [Meclofenamic acid sodium]
3.48

Moving on to the next compound: CC(C)NC(C)Cc1ccc(I)cc1 (stereo not drawn) [Iofetamine hydrochloride]
3.67

Moving on to the next compound: CSc1ccc2c(c1)N(CCC1CCCCN1C)c1ccccc1S2 (stereo not drawn) [Thioridazine hydrochloride]
0.451

Moving on to the next compound: CNCCCC1c2ccccc2C=Cc2ccccc21 [Protriptyline hydrochloride]
0.431

Moving on to the next compound: Nc1ncnc2c1ncn2[C@@H]1O[C@H](CO)[C@@H](O)[C@H]1O
2.4

Moving on to the next compound: COc1cc(Cc2cnc(N)nc2N)cc(OC)c1OC
-1.79

###

experimental system: SARS-CoV-2 3CLpro (Severe acute respiratory syndrome coronavirus 2, UniProt P0DTD1)
test: biochemical
Assay type: biochemical
run parameters: 4 h, read-out: Replicate_2 (LOPAC_screen_w_protease)
Where a name gives a salt, the structure may show the parent alone. Peptide text beside a SMILES is read from it. * marks the point of attachment. Cbz = O=C(OCc1ccccc1)*
Provide the reported inhibition at 5 µM of each item.
Enter your answer as a number in %; do not include the unit.

Quick one: inhibition at 5 µM of CNCCCN1c2ccccc2CCc2ccccc21 [Desipramine hydrochloride] ?
1.58

Moving on to the next compound: CC[C@H](CO)Nc1nc(NCc2ccccc2)c2ncn(C(C)C)c2n1
-0.448

Moving on to the next compound: CCN1C[C@]2(C)CC[C@H](O)[C@]34C1[C@@H](C[C@H]23)[C@@]1(O)C[C@H](OC)[C@H]2C[C@@H]4[C@@H]1[C@H]2O
2.46

Moving on to the next compound: CN(C)CCC=C1c2ccccc2C=Cc2ccccc21 [Cyclobenzaprine hydrochloride]
1.06

Moving on to the next compound: Clc1cccc(Cl)c1N=C1NCCN1 [Clonidine hydrochloride]
2.22

Moving on to the next compound: c1ccc2c(c1)OCC(C1=NCCN1)O2 (centres unmarked) [Idazoxan hydrochloride]
2.66

Moving on to the next compound: CNC(=C[N+](=O)[O-])NCCSCc1ccc(CN(C)C)o1 [Ranitidine hydrochloride]
1.3

Moving on to the next compound: CC(C)[C@H](NC(=O)OCc1ccccc1)C(=O)N[C@H](C=O)Cc1ccccc1 [MDL 28170] (Cbz-Val-Phe-aldehyde)
3.52

###

experimental system: SARS-CoV-2 3CLpro (Severe acute respiratory syndrome coronavirus 2)
test: biochemical
Assay type: biochemical
Parameters: unit not given here
observation type: mean
Give the figure by itself; no unit, no explanation.

Quick one: mean of Cl.Nc1c2c(nc3ccccc13)CCCC2 ?
1.2241

Moving on to the next molecule: N[C@H](C(=O)O)[C@H]1C[C@@H]1C(=O)O
1.172

Moving on to the next molecule: C[C@@H](N)Cc1cnc[nH]1.Cl.Cl
1.03

Moving on to the next molecule: CC(C)(C)C1(O)CCN2CC3c4ccccc4CCc4cccc(c43)C2C1.Cl (racemic) [(±)-Butaclamol hydrochloride]
5.08

Moving on to the next molecule: COc1cccc(-c2cc(=O)c3ccccc3o2)c1N [PD 98,059]
2.471

Moving on to the next molecule: O=C(O)CCC/C=C\C[C@@H]1[C@@H](/C=C/[C@H](O)C2Cc3ccccc3C2)[C@@H](F)C[C@@H]1O [AL-8810]
0.6974

Moving on to the next molecule: O=C(c1ccc2c(c1)OCCO2)N1CCCCC1 [CX 546]
-0.2323

Moving on to the next molecule: CC(N)Cc1c[nH]c2ccc(OCc3cccs3)cc12 (stereo not shown) [BW 723C86]
3.125

Moving on to the next molecule: COc1ccc2c(c1)c(CC(=O)O)c(C)n2C(=O)c1ccc(Cl)cc1 [Indomethacin]
2.334

Moving on to the next molecule: CN1CCc2ccccc2Cc2[nH]c3ccccc3c2CC1 [LE 300]
1.0058

# credit: paper PMC7587356
